test: Therapeutic index, ratio of IC50 for HEF to IC50 for human HCT116 cells; type: toxicity; details: HEF cells versus HCT116 cells, read-out: Ratio IC50
parameter: selectivity ratio
Give the value as a plain number.

In: Which selectivity ratio is reported for this compound? C=C1C2=C(C(=O)N1OC)[C@H](OC(=O)CCl)[C@@](C)(O)[C@H](CCCCC)O2
Out: 3.8

====

assay: Therapeutic index, ratio of IC50 for HEF to IC50 for human NCI-H929 cells; assay type: toxicity; conditions: HEF cells versus NCI-H929 cells, read-out: Ratio IC50
parameter: selectivity ratio
Give the value as a plain number.

In: Which selectivity ratio is reported for this compound? C=C1C2=C(C(=O)N1OC)[C@H](OC(=O)CSc1nc3ccccc3s1)[C@@](C)(O)[C@H](CCCCC)O2
Out: 18.6
